test: Pharmacokinetics of dexlansoprazole injection after single intravenous infusion in healthy Chinese subjects; assay type: in vivo, human; details: human, plasma, iv, 20 mg, 20 mg iv, CYP2C19 homEM (n = 8)
quantity: clearance (mL/min)
State the answer as a number, implicitly in mL/min.

Field request: clearance | item: Cc1c(OCC(F)(F)F)ccnc1C[S@@+]([O-])c1nc2ccccc2[nH]1 [dexlansoprazole]
113

###

experiment: Pharmacokinetics of dexlansoprazole injection after single intravenous infusion in healthy Chinese subjects; type: in vivo, human; details: human, plasma, iv, 20 mg, 20 mg iv, CYP2C19 homEM (n = 8)
quantity: half-life (h)
The answer is to be given in h; state only the numeric part.

# half-life lookup, item Cc1c(OCC(F)(F)F)ccnc1C[S@@+]([O-])c1nc2ccccc2[nH]1
1.18

###

assay: Pharmacokinetics of dexlansoprazole injection after single intravenous infusion in healthy Chinese subjects; format: in vivo, human; details: human, plasma, iv, 30 mg, 30 mg iv, CYP2C19 PM (n = 7)
quantity: clearance (mL/min)
Lab book: enter the figure in mL/min, no units written.

Recorded clearance for Cc1c(OCC(F)(F)F)ccnc1C[S@@+]([O-])c1nc2ccccc2[nH]1 , please?
40.2

###

assay: Pharmacokinetics of dexlansoprazole injection after single intravenous infusion in healthy Chinese subjects; format: in vivo, human; settings: human, plasma, iv, 30 mg, 30 mg iv, CYP2C19 homEM (n = 11)
quantity: half-life (h)
Hi! Could you send only the number? It should be in h, unit omitted.

Returns the measured half-life for the input compound. Input: Cc1c(OCC(F)(F)F)ccnc1C[S@@+]([O-])c1nc2ccccc2[nH]1 [dexlansoprazole]
1.14
